Tested on: TAOK1;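 note: KINOMEscan kinase panel screen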
Details: concentration: 1 μM, replicates: in singlicate; n = 1

# Molecule, Quantity unit, %Inh
records = [
    ("CCn1c(-c2nonc2N)nc2c(-c3ccccc3)ncc(OCCCN)c21.O=C(O)C(F)(F)F.O=C(O)C(F)(F)F", "%", 0),
    ("Cc1cccc(Nc2nc(N[C@H]3CCCC[C@H]3N)ncc2C(N)=O)c1.Cl", "%", 32),
    ("Cn1cc(-c2cnc(N)c3c(-c4ccc5c(c4)CCN5C(=O)Cc4ccccc4)csc23)cn1", "%", 0),
    ("CC(C)(C)c1ccc(C(=O)Nc2cn3cc(-n4ccnc4)ccc3n2)cc1", "%", 0),
    ("O=C(Nc1n[nH]c2nc(-c3ccccc3O)ccc12)C1CC1", "%", 9),
    ("CCNC(=O)/C=C/c1n[nH]c2cc(Sc3ccccc3C(=O)NC)ccc12", "%", 0),
    ("Cc1cc(-c2c(-c3ccc(F)cc3)ncn2CCCN2CCOCC2)nc(N)n1", "%", 0),
    ("Cc1cc(-c2ccnc(Nc3cccc(C#N)c3)n2)cc(C)c1O", "%", 77),
    ("COc1ccc(C2=C(Nc3cccc(O)c3)C(=O)NC2=O)cc1", "%", 0),
    ("Cl.Cl.NC(CNC(=O)c1cc(Br)c(-c2ccnc3[nH]ccc23)s1)c1ccccc1 (stereo not drawn)", "%", 66),
    ("COC(=O)Nc1nc2cc(Oc3ccc(NC(=O)Nc4cccc(SC)c4)cc3)ccc2[nH]1.Cl", "%", 0),
    ("Fc1cc(Cl)ccc1Nc1ccnc2cc(-c3ccc(CN4CCSCC4)o3)ccc12", "%", 0),
    ("CN(C)CCOc1ccc(-c2cc(-c3ccc(Cl)c(O)c3)c(-c3ccncc3)[nH]2)cc1.Cl.Cl", "%", 0),
    ("CN(c1ccc(NC(=O)Nc2cccc(Cl)c2)cc1)c1ccnc(N)n1.Cl", "%", 0),
    ("N#CC1(c2cccc(C(=O)Nc3cccc(Oc4ccc5nc(NC(=O)C6CC6)sc5n4)c3)c2)CC1", "%", 0),
    ("O=C1NC(=O)C(c2ccccc2Cl)=C1Nc1cccc(Cl)c1", "%", 0),
    ("CN(c1ccc(NC(=O)N2CCN(CCCN3CCOCC3)CC2)cc1)c1ccnc(Nc2ccc(CS(C)(=O)=O)cc2)n1.Cl", "%", 0),
    ("Cc1ccc(NC(=O)c2cccc(N3CCCCC3)c2)cc1-c1ccc(C(=O)NCC2CC2)cc1", "%", 8),
    ("COc1cc(Nc2nccc(N3CCC(NC(=O)Nc4ccc5c(c4)OCO5)C3)n2)cc(OC)c1OC (stereo not drawn)", "%", 0),
    ("NCCC(NC(=O)c1cc(Br)c(-c2ccnc3[nH]ccc23)s1)c1ccccc1.O=C(O)C(F)(F)F.O=C(O)C(F)(F)F (stereo not drawn)", "%", 48),
    ("Cc1ccc(NC(=O)c2ccc(Cl)c(Cl)c2)cc1-c1ccc(C(=O)Nc2ccncc2)cc1", "%", 0),
    ("Cl.N#CCc1ccc(Nc2nccc(Nc3ccc(Oc4ccccc4)cc3)n2)cc1", "%", 0),
    ("Cc1cccc(Nc2nc(NCCN)ncc2C(N)=O)c1", "%", 15),
    ("CN(C)CCNS(=O)(=O)c1ccc(-c2ccnc3[nH]ccc23)cc1", "%", 3),
    ("COc1cccc(C2=C(Nc3cccc(O)c3)C(=O)NC2=O)c1", "%", 10),
    ("N#Cc1cnc2cc(-c3cnc(CNCCN4CCOCC4)s3)ccc2c1Nc1ccc(Oc2ccccc2)cc1", "%", 0),
    ("CC(=O)Nc1cn2nc(Oc3cccc(NC(=O)c4cccc(C(F)(F)F)c4)c3)ccc2n1", "%", 0),
]
